- EXPERIMENTAL TARGET: UniProt:P09936
- Sequence (P09936 whole entry): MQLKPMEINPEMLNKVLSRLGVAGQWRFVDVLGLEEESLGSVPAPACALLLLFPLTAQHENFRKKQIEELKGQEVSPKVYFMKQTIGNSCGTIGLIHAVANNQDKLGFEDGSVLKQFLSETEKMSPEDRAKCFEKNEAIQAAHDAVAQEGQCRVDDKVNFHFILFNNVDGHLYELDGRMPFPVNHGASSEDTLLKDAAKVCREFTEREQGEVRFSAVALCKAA
METRIC NAME: pIC50
API: returns pIC50 as number; meaning -log10 of concentration in mol/L.

Q: Fill blank: measured pIC50 of the compound CO[C@H]1/C=C/O[C@@]2(C)Oc3c(C)c(O)c4c(c3C2=O)C(=O)/C(=C/NN2CCN(C)CC2)C(=C4O)NC(=O)/C(C)=C\C=C\[C@H](C)[C@H](O)[C@@H](C)[C@@H](O)[C@@H](C)[C@H](OC(C)=O)[C@@H]1C is ____.
Ans: 4.71

Q: Fill blank: measured pIC50 of the compound CC1=C(O)C(=O)C=C2C1=CC=C1[C@@]2(C)CC[C@@]2(C)[C@@H]3C[C@](C)(C(=O)O)CC[C@]3(C)CC[C@]12C is ____.
Ans: 5.17

Q: Fill blank: measured pIC50 of the compound CC(=O)Oc1c2c(c(CC=C(C)C)c3c1C(=O)C1=C[C@@H]4CC5C(C)(C)OC(C/C=C(\C)C(=O)O)(C4=O)[C@@]15O3)OC(C)(CCC=C(C)C)C=C2 (stereo partly drawn) is ____.
Ans: 5.27

Numbers sourced from BindingDB's records for doi:10.1021/acschembio.7b00543.
